- subject-of-test: SARS-CoV-2 Papain-like (PLpro) protease (Severe acute respiratory syndrome coronavirus 2)
- assay-protocol: biochemical
- assay-conditions: ubiquitin-fluorophore substrate (Ub-R110), 30 min preincubation at RT, run in duplicate; read-out: PLpro IC50
property-label: IC50

Example cases with answers are listed next.
>  <compound>
COC(=O)/C=C/CNC(=O)C(=O)NCc1ccc2cc1C(=O)N[C@H](C)c1cc(cc3ccccc13)CCCCCNC2=O [Example 42]

>  <subject-of-test>
SARS-CoV-2 Papain-like (PLpro) protease (Severe acute respiratory syndrome coronavirus 2)

>  <IC50>
> 10000 nM

$$$$
>  <compound>
COC(=O)/C=C/C(=O)NNC(=O)CCc1ccc2cc1C(=O)N[C@H](C)c1cc(cc3ccccc13)CCCCCCC2 [Example 18]

>  <subject-of-test>
SARS-CoV-2 Papain-like (PLpro) protease (Severe acute respiratory syndrome coronavirus 2)

>  <IC50>
100 to 1000 nM

$$$$

Looking up C[C@H]1NC(=O)c2cc(ccc2CCC(=O)NNC(=O)OC(C)(C)C)CCCCCC=Cc2cc1c1ccccc1c2 [Example 21] , I found its IC50 recorded as > 10000 nM

Looking up COC(=O)/C=C/C(=O)NNC(=O)CCc1ccc2cc1C(=O)N[C@H](C)c1cc(cc3ccccc13)C=CCCCN(C)C2=O [Example 32] , I found its IC50 recorded as < 100 nM

Looking up Cc1ccc2cc1C(=O)N[C@H](C)c1cc(cc3ccccc13)CCCCCNC2 [Example 2] , I found its IC50 recorded as 100 to 1000 nM

Looking up Cc1ccc2cc1C(=O)N[C@H](C)c1cc(cc3ccccc13)CCCCNC2 [Example 4] , I found its IC50 recorded as 1000 to 10000 nM

Looking up Cc1ccc2cc1C(=O)N[C@H](C)c1cc(cc3ccccc13)C(=O)N(C)CCCN(C)C(=O)CC2 [Example 11] , I found its IC50 recorded as > 10000 nM

Looking up Cc1ccc2cc1C(=O)N[C@H](C)c1c(ccc3ccccc13)CCCCCNC2 [Example 8] , I found its IC50 recorded as > 10000 nM

Looking up COC(=O)/C=C/C(=O)NNC(=O)CCc1ccc2cc1C(=O)N[C@H](C)c1cccc3ccc(cc13)CCCCNC2=O [Example 34] , I found its IC50 recorded as 100 to 1000 nM

Looking up C[C@H]1NC(=O)c2cc(ccc2CCC(=O)NN)CCCCCC=Cc2cc1c1ccccc1c2 [Example 20] , I found its IC50 recorded as > 10000 nM
